B1: library; a variant is named by its letters at N, in order (parent)
chain: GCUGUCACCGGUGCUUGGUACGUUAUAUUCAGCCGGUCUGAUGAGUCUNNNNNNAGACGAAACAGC

variants of: B1; assay: FACS-Seq fitted mean relative fluorescence mCherry/BFP with ligand (log10 relative fluorescence); HEK293T overexpressing SLC46A1; ligand concentration (+) FACS-Seq: 6 mM; higher = higher reporter protein expression; conditions: with (6R,S)-folinic acid; ligand present: yes
Quantity kind: FACS-Seq fitted mean (log10)

Check out these entries, answers already filled in.
{"columns": ["Residue string", "Quantity kind", "Value"],
 "data": [
  ["GCUGUCACCGGUGCUUGGUACGUUAUAUUCAGCCGGUCUGAUGAGUCUGAGUACAGACGAAACAGC [GAGUAC]", "FACS-Seq fitted mean (log10)", 0.311],
  ["GCUGUCACCGGUGCUUGGUACGUUAUAUUCAGCCGGUCUGAUGAGUCUAUUGAAAGACGAAACAGC [AUUGAA]", "FACS-Seq fitted mean (log10)", 0.718],
  ["GCUGUCACCGGUGCUUGGUACGUUAUAUUCAGCCGGUCUGAUGAGUCUGAAAAUAGACGAAACAGC [GAAAAU]", "FACS-Seq fitted mean (log10)", 0.647],
  ["GCUGUCACCGGUGCUUGGUACGUUAUAUUCAGCCGGUCUGAUGAGUCUACAUGGAGACGAAACAGC [ACAUGG]", "FACS-Seq fitted mean (log10)", 0.203],
  ["GCUGUCACCGGUGCUUGGUACGUUAUAUUCAGCCGGUCUGAUGAGUCUCGCUUUAGACGAAACAGC [CGCUUU]", "FACS-Seq fitted mean (log10)", 0.0431],
  ["GCUGUCACCGGUGCUUGGUACGUUAUAUUCAGCCGGUCUGAUGAGUCUCGUAAAAGACGAAACAGC [CGUAAA]", "FACS-Seq fitted mean (log10)", 0.334]
]}

Inquiry: Name the reported FACS-Seq fitted mean (log10) value associated with the variant GCUGUCACCGGUGCUUGGUACGUUAUAUUCAGCCGGUCUGAUGAGUCUAAAAGCAGACGAAACAGC [AAAAGC]
Reply text: 0.358

Inquiry: Field entry: GCUGUCACCGGUGCUUGGUACGUUAUAUUCAGCCGGUCUGAUGAGUCUGUCAGGAGACGAAACAGC [GUCAGG]
Reply text: 0.29

Inquiry: Field entry: GCUGUCACCGGUGCUUGGUACGUUAUAUUCAGCCGGUCUGAUGAGUCUGUAAAAAGACGAAACAGC [GUAAAA]
Reply text: -0.0576

Inquiry: Field entry: GCUGUCACCGGUGCUUGGUACGUUAUAUUCAGCCGGUCUGAUGAGUCUAACAUGAGACGAAACAGC [AACAUG]
Reply text: 0.652

Inquiry: Field entry: GCUGUCACCGGUGCUUGGUACGUUAUAUUCAGCCGGUCUGAUGAGUCUCUGCAGAGACGAAACAGC [CUGCAG]
Reply text: 0.679
